Assay: The drug is tested on Z-029 corresponding to rat gut metagenome with ENA study accession number: PRJEB37062 and ENA sample accession number: ERS12561828 for biotransformation under anaerobic condition. The drug concentrations were measured over 9 timepoints collected between 0 and 24 hours of incubation by liquid-chromatography-coupled mass spectrometry (LC–MS); also: call rule not given here
Conditions: 2 µM
measuredMetric: Bacterial Biotransformation

Examples with answers:
>>> df
                                   compound                       val
0               Nc1ccc(/N=N/c2ccccc2)c(N)n1      Compound metabolized
1           Cc1ccnc2c1NC(=O)c1cccnc1N2C1CC1  Compound NOT metabolized
2  COc1cc2nc(N(C)CCCNC(=O)C3CCCO3)nc(N)c2cc1OC (stereo not drawn)  Compound NOT metabolized
3                   Nc1c2c(nc3ccccc13)CCCC2  Compound NOT metabolized
4           CN(C)CCC=C1c2ccccc2C=Cc2ccccc21  Compound NOT metabolized

Documented Bacterial Biotransformation of "CC(C)c1c(C(=O)Nc2ccccc2)c(-c2ccccc2)c(-c2ccc(F)cc2)n1CC[C@@H](O)C[C@@H](O)CC(=O)O" : Compound NOT metabolized

The compound identified as CC(=O)OCC(=O)[C@@]1(O)[C@@H](C)C[C@H]2[C@@H]3CCC4=CC(=O)C=C[C@]4(C)[C@@]3(F)[C@@H](O)C[C@@]21C [BETAMETHASONE ACETATE] registered its Bacterial Biotransformation at Compound metabolized

The measured Bacterial Biotransformation associated with CCN(CC)CCOCCOC(=O)C1(c2ccccc2)CCCC1.O=C(O)CC(O)(CC(=O)O)C(=O)O [CARBETAPENTANE CITRATE] reads Compound NOT metabolized

Memo: CC(C)OC(=O)C(C)(C)Oc1ccc(C(=O)c2ccc(Cl)cc2)cc1 [FENOFIBRATE] , reported Bacterial Biotransformation: Compound NOT metabolized

Reported Bacterial Biotransformation ( "c1ccc([C@H]2CN3CCSC3=N2)cc1" ) = Compound NOT metabolized
